molecular target: S-adenosylmethionine synthase isoform type-2 (Rattus norvegicus, UniProt P18298); assay: Inhibition constant was evaluated with kidney Methionine adenosyltransferase II form of rat methionine adenosyltransferase, when ATP was the variable substrate (60 uM)
Sequence (P18298 whole entry, canonical isoform): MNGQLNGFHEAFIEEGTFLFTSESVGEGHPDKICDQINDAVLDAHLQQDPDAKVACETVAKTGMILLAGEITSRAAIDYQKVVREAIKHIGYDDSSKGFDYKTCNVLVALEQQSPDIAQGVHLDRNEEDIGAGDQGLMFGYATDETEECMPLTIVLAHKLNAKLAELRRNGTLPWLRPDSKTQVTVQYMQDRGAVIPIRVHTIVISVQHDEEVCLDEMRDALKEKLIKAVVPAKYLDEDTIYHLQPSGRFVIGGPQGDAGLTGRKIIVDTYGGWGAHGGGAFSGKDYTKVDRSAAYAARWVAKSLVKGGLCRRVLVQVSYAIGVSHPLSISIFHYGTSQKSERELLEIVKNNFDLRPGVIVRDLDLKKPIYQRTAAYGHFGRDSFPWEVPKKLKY
measured-metric: pKi
Worth noting: pKi values are minus log10 of concentrations stated in mol/L.

Reference set, count: 2
compound	value-observed
Nc1ncnc2c1ncn2[C@@H]1O[C@H](C(CP(=O)(O)OP(=O)(O)OP(=O)(O)O)[S+]([O-])CCC(N)C(=O)O)[C@@H](O)[C@H]1O (some centres undefined)	3.85
Nc1ncnc2c1ncn2[C@@H]1O[C@H](C(CP(=O)(O)OP(=O)(O)NP(=O)(O)O)SCCC(N)C(=O)O)[C@@H](O)[C@H]1O (some centres undefined)	4.80

For this compound ( Nc1ncnc2c1ncn2[C@@H]1O[C@H](C(CP(=O)(O)OP(=O)(O)OP(=O)(O)O)SCCC(N)C(=O)O)[C@@H](O)[C@H]1O (single isomer, unassigned; epimer 1) ), measured pKi is 4.41

Noted for Nc1ncnc2c1ncn2[C@@H]1O[C@H](C(CP(=O)(O)OP(=O)(O)OP(=O)(O)O)SCCC(N)C(=O)O)[C@@H](O)[C@H]1O (single isomer, unassigned; epimer 2) : its pKi reads 3.74
